ASSAYED SYSTEM: Gal4-RORγ-LBD (Homo sapiens, UniProt P51449)
Construct: expressed in transfected cells; host or cells: HEK-293 cells (pcDNA3.1neo plasmid)
Sequence (P51449 269-508 limits assumed): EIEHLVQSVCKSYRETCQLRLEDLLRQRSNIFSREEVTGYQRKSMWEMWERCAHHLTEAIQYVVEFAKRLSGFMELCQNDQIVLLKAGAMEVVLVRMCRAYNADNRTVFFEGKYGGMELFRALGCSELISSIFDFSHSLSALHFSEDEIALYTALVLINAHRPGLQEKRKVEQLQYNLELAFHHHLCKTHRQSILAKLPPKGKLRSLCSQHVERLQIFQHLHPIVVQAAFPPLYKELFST
METHOD: Gal4-RORγ Luciferase Reporter Assay in HEK-293T Cells
Assay type: cell-based
RUN PARAMETERS: HEK-293 cells, luciferase reporter, with 2 μM ursolic acid
PARAMETER MEASURED: EC50

Please review the entries below; each comes with its answer.
COMPOUND: COc1ccnc(-c2ccc3c(c2)N(S(=O)(=O)c2cccc(C(F)(F)F)c2)C[C@H](CCC(=O)O)O3)n1
EC50: 500 to 5000 nM
--
COMPOUND: COc1ncccc1-c1ccc2c(c1)N(S(=O)(=O)c1cccc(C(F)(F)F)c1)C[C@H](CCC(=O)O)O2
EC50: 500 to 5000 nM
--
COMPOUND: COc1cccc(-c2ccc3c(c2)N(S(=O)(=O)c2cccc(C(F)(F)F)c2)C[C@H](CCC(=O)N2CCS(=O)(=O)CC2)O3)c1 [Compound 23M]
EC50: < 500 nM
--
COMPOUND: COc1c(Cl)cccc1-c1ccc2c(c1)N(S(=O)(=O)c1cccc(C(F)(F)F)c1)C[C@H](CCC(=O)O)O2
EC50: < 500 nM
--
COMPOUND: Cc1c(C(F)(F)F)cccc1S(=O)(=O)N1C[C@H](CCC(=O)O)Oc2ccc(-c3cc(F)ccc3F)cc21
EC50: 500 to 5000 nM
--
COMPOUND: O=C(O)CNC(=O)CC[C@H]1CN(S(=O)(=O)c2cccc(C(F)(F)F)c2)c2cc(-c3cccc(C(F)(F)F)n3)ccc2O1 [Compound 23J]
EC50: 5000 to 10000 nM
--
COMPOUND: O=C(O)CC[C@H]1CN(S(=O)(=O)c2cccc(C(F)(F)F)c2)c2cc(-c3cc(Cl)ccc3F)ccc2O1
EC50: < 500 nM
--
COMPOUND: CN(C)S(=O)(=O)NC[C@H]1CN(S(=O)(=O)c2cccc(C(F)(F)F)c2)c2cc(-c3cc(F)ccc3F)ccc2O1 [Compound 45A]
EC50: < 500 nM

Task: Answer with reported EC50 of CN(C)c1cccc(-c2ccc3c(c2)N(S(=O)(=O)c2cccc(C(F)(F)F)c2)C[C@H](CCc2n[nH]c(=O)o2)O3)n1 [Compound 28B]
Result: < 500 nM

* * *

ASSAYED SYSTEM: Gal4-RORγ-LBD (Homo sapiens, UniProt P51449)
Construct: expressed in transfected cells; host or cells: HEK-293 cells (pcDNA3.1neo plasmid)
METHOD: Gal4-RORγ Luciferase Reporter Assay in HEK-293T Cells
Type: cell-based
RUN PARAMETERS: HEK-293 cells, luciferase reporter, with 2 μM ursolic acid
PARAMETER MEASURED: EC50

Please review the entries below; each comes with its answer.
MOLECULE: O=C(O)CC[C@H]1CN(S(=O)(=O)c2cccc(OC(F)F)c2)c2cc(-c3cc(F)cc(F)c3Cl)ccc2O1
EC50: < 500 nM
//
MOLECULE: Cc1c(F)cc(F)cc1-c1ccc2c(c1)N(S(=O)(=O)c1cccc(C(F)(F)F)c1)C[C@H](CCC(=O)O)O2
EC50: < 500 nM
//
MOLECULE: COc1cc(S(=O)(=O)N2C[C@H](CCc3n[nH]c(=O)o3)Oc3ccc(-c4cccc(C(F)(F)F)n4)cc32)ccc1F [Compound 28K]
EC50: < 500 nM
//
MOLECULE: CCOc1ncc(C(F)(F)F)cc1S(=O)(=O)N1C[C@H](CCC(=O)O)Oc2ccc(-c3cccc(Cl)c3)cc21
EC50: 500 to 5000 nM

Here is another molecule to look at.
Task: Write EC50 of COc1cc(-c2ccc3c(c2)N(S(=O)(=O)c2cccc(C(F)(F)F)c2)C[C@H](CCC(=O)O)O3)ccn1 ; system used: Gal4-RORγ-LBD (Homo sapiens, UniProt P51449)
Result: 500 to 5000 nM
